Where these numbers come from: ChEMBL document CHEMBL3301361

Listing: pKa of selected molecules
# measurement_notes: physchem

molecule: CCCSc1ccc2nc(NC(=O)OC)[nH]c2c1
limit_qualifier: =
pKa: 5.88
--
molecule: Cc1nc2c(OCc3ccccc3)cccn2c1CC#N
limit_qualifier: =
pKa: 5.6
--
molecule: Cc1ncc[nH]1
limit_qualifier: =
pKa: 7.8
--
molecule: N#Cc1cc(F)c(Cl)cc1O[C@H](CCN)c1ccccc1
limit_qualifier: =
pKa: 9.6
--
molecule: N=C(N)SCCc1cccc(CCSC(=N)N)c1
limit_qualifier: =
pKa: 11
--
molecule: CCOC(=O)N1CCC(Nc2cc(OC)ccn2)CC1
limit_qualifier: =
pKa: 7.2
--
molecule: NC1=Nc2ccccc2Sc2ccccc21
limit_qualifier: =
pKa: 7.2
--
molecule: O=C(O)c1cccc(CN2CCC(CN3CCC(Oc4ccc(Cl)c(Cl)c4)CC3)CC2)c1
limit_qualifier: =
pKa: 9.6
--
molecule: CCOC(=O)N1CCC2(CC1)N=C(N)c1sccc1N2
limit_qualifier: =
pKa: 10.5
--
molecule: COc1ccc(S(=O)(=O)NC(=O)N2CCC(N3CCC(Oc4ccc(Cl)c(Cl)c4)CC3)CC2)cc1
limit_qualifier: =
pKa: 8.3
--
molecule: NC1=NC(c2ccco2)Nc2ccccc21 (centres undefined)
limit_qualifier: =
pKa: 9.13
--
molecule: Cc1ccc(S(=O)(=O)NC(=O)N2CCC(N3CCC(Oc4ccc(Cl)c(C)c4Cl)CC3)CC2)cc1
limit_qualifier: =
pKa: 8.7
--
molecule: c1ccc(CC2=NCCN2)cc1
limit_qualifier: =
pKa: 10.7
--
molecule: O=C([C@H]1CCCCN1)N1CCN(c2nc(NCc3ccc(Cl)cc3Cl)c3cccnc3n2)CC1
limit_qualifier: =
pKa: 9
--
molecule: CC(C)/N=c1\cc2n(-c3ccc(Cl)cc3)c3ccccc3nc-2cc1Nc1ccc(Cl)cc1
limit_qualifier: =
pKa: 8.8
--
molecule: Cc1nccn1CC1CCc2c(c3ccccc3n2C)C1=O (centres undefined)
limit_qualifier: =
pKa: 7.73
--
molecule: O=C(O)/C=C/c1cccnc1
limit_qualifier: =
pKa: 4.4
--
molecule: O=S(=O)(c1ccccc1)N1CCN(Cc2ccccc2)CC1
limit_qualifier: =
pKa: 5.6
--
molecule: Cc1cc(CN2Cc3ccccc3C[C@H]2C(=O)Nc2ccc(Cl)cc2Cl)ccc1OCC(=O)O
limit_qualifier: =
pKa: 6.2
--
molecule: Nc1nc(O)c(Cl)c(-c2ccccc2)n1
limit_qualifier: =
pKa: 2.35
--
molecule: O=C(Nc1ccc(Cl)c(S(=O)(=O)N2CCNCC2)c1O)Nc1cccc(F)c1Cl
limit_qualifier: =
pKa: 8.5
--
molecule: Cc1ccnc(NCc2ccccc2O)c1
limit_qualifier: =
pKa: 6.8
--
molecule: Nc1ccc(OCC(=O)O)c(-c2ccccc2)c1
limit_qualifier: =
pKa: 5.1
--
molecule: C[C@H]1CN=C(N)c2sccc2O1
limit_qualifier: =
pKa: 11
--
molecule: CCCc1nc(C(C)(C)O)c(C(=O)OCc2oc(=O)oc2C)n1Cc1ccc(-c2ccccc2-c2nnn[nH]2)cc1
limit_qualifier: =
pKa: 6.05
--
molecule: NC1=NC(C2CC2)Cc2ccsc21 (centres undefined)
limit_qualifier: >
pKa: 11
--
molecule: O=C(O)COc1ccc(Cl)cc1CN1CCN(S(=O)(=O)c2ccccc2)CC1
limit_qualifier: =
pKa: 6.8
--
molecule: Cc1cc(Cl)ccc1OC1CCN(C[C@H](O)CNC(=O)c2c[nH]c(=O)cc2C(F)(F)F)CC1
limit_qualifier: =
pKa: 7.5
--
molecule: O=C(c1ccccc1)N1CCN(Cc2ccccc2)CC1
limit_qualifier: =
pKa: 6.2
--
molecule: c1ccc(SCc2ccccn2)cc1
limit_qualifier: =
pKa: 3.8
--
molecule: C=CCOc1ccccc1OCC(O)CNC(C)C (centres undefined)
limit_qualifier: =
pKa: 9.69
--
molecule: COc1ccc(COc2nc(Br)cnc2NS(=O)(=O)c2ccc(C)cc2)cc1OCCN(C)C
limit_qualifier: =
pKa: 8.8
--
molecule: c1ccc(CSc2nnc([C@@H]3CCCN3)o2)cc1
limit_qualifier: =
pKa: 7.03
--
molecule: Cc1ccnc(NCc2ccccc2)c1
limit_qualifier: =
pKa: 7
